tested on: SN12C renal; assay: NCI tumour cell line growth inhibition, 48 h
List of TGI values.

compound	measured_value
CCC(=O)Nc1ccc2c(c1)CN1C(=O)c3ccccc3C1=N2	> 100 µM
CC(=O)NC(Cc1c[nH]c2ccccc12)C(=O)O (stereo not drawn)	> 100 µM
C[C@]12CC[C@@H]3c4ccc(OCC(=O)O)cc4CC[C@H]3[C@@H]1CCC2=O	> 100 µM

Task: Given the entry CC(=O)O[C@H]1C(=O)[C@@]2(C)[C@H]([C@H](OC(=O)c3ccccc3)[C@]3(O)C[C@H](OC(=O)[C@H](OC(=O)CCC(=O)OC4CCC(S/N=C(N)/N=C(\N)N(C)C)CC4)[C@@H](NC(=O)c4ccccc4)c4ccccc4)C(C)=C1C3(C)C)[C@]1(OC(C)=O)CO[C@@H]1C[C@@H]2O (stereo partly drawn) , report its measured TGI.
Result: > 50 µM

Task: Given the entry O=C1CN2CCC1C/C2=C\c1ccnc2c(Cl)cccc12 (stereo not drawn) , report its measured TGI.
Result: > 100 µM

Task: Given the entry Cn1c(=S)[nH]c2c(Cl)cc(Cl)cc2c1=O , report its measured TGI.
Result: > 100 µM

Task: Given the entry CC(C(O)c1ccccc1)N(C)/N=N/c1nc2c([nH]1)c(=O)n(C)c(=O)n2C (stereo not drawn) , report its measured TGI.
Result: > 100 µM
